The reported numbers originate from ChEMBL document CHEMBL4138275.

Species on record: Sus scrofa
EXPERIMENT: Induction of porcine brain tubulin polymerization at 5 uM by turbidimetric method
Calls of active or inactive are those of the source. The rule behind the calls is not given here.
MEASURED QUANTITY: Activity

# get_value(readout='Activity', item= CC(=O)O[C@H]1[C@H]2[C@H]([C@@H]3[C@@H](O)[C@@H]4[C@H]([C@H](C)[C@H]5O[C@]56OC(=O)[C@@](C)(O)[C@]46C)[C@@]3(C)[C@H]1OC(C)=O)[C@@H](OC(=O)CC(C)C)C(=O)[C@H]1C[C@@H]3O[C@@H]3[C@H](OC(C)=O)[C@]21C )
Active

Record request: Activity value, item CC(=O)O[C@H]1[C@H]2[C@H]([C@@H]3[C@@H](O)[C@@H]4[C@H]([C@H](C)[C@H]5O[C@]56OC(=O)[C@@](C)(O)[C@]46C)[C@@]3(C)[C@H]1OC(C)=O)[C@@H](OC(=O)C(C)(C)C)C(=O)[C@H]1C[C@@H]3O[C@@H]3[C@H](OC(C)=O)[C@]21C
Active

Need Activity of CC(=O)O[C@H]1[C@H]2[C@H]([C@@H]3[C@@H](OC(=O)CC(C)C)[C@@H]4[C@H]([C@H](C)[C@H]5O[C@]56OC(=O)[C@@](C)(O)[C@]46C)[C@@]3(C)[C@H]1OC(C)=O)[C@@H](O)C(=O)[C@H]1C[C@@H]3O[C@@H]3[C@H](OC(C)=O)[C@]21C , thanks.
Active

###

Species on record: Sus scrofa
EXPERIMENT: Induction of porcine brain tubulin polymerization at 5 uM by turbidimetric method
The source made the active and inactive calls. The rule behind the calls is not given here.
MEASURED QUANTITY: Activity

I would be grateful if you could share the reported Activity for CC(=O)O[C@H]1[C@H]2[C@H]([C@@H]3[C@@H](OC(=O)C(C)C)[C@@H]4[C@H]([C@H](C)[C@H]5O[C@]56OC(=O)[C@@](C)(O)[C@]46C)[C@@]3(C)[C@H]1OC(C)=O)[C@@H](O)C(=O)[C@H]1C[C@@H]3O[C@@H]3[C@H](OC(C)=O)[C@]21C .
Active

Which Activity reading was recorded for the compound CC(=O)O[C@H]1[C@H]2[C@H]([C@@H]3[C@@H](OC(=O)C4CC4)[C@@H]4[C@H]([C@H](C)[C@H]5O[C@]56OC(=O)[C@@](C)(O)[C@]46C)[C@@]3(C)[C@H]1OC(C)=O)[C@@H](O)C(=O)[C@H]1C[C@@H]3O[C@@H]3[C@H](OC(C)=O)[C@]21C ?
Active

###

Tested on: HeLa
EXPERIMENT: Antiproliferative activity against human HeLa cells after 48 hrs by sulforhodamine B assay
Assay type: functional, cell-based
pIC50: −log10 of the molar value.
Kindly return class 1 if reported pIC50 is no lower than 6; return class 0 if it is lower.

Tell me whether pIC50 is at least 6 here: CC(=O)O[C@H]1[C@H]2[C@H]([C@@H]3[C@@H](O)[C@@H]4[C@H]([C@H](C)[C@H]5O[C@]56OC(=O)[C@@](C)(O)[C@]46C)[C@@]3(C)[C@H]1OC(C)=O)[C@@H](OC(=O)c1ccc3c(c1)C(=O)c1ccccc1C3=O)C(=O)[C@H]1C[C@@H]3O[C@@H]3[C@H](OC(C)=O)[C@]21C
class 1

// inclusive: pIC50 at least 6? input: CC(=O)O[C@H]1[C@H]2[C@H]([C@@H]3[C@@H](OC(=O)C(C)(C)C)[C@@H]4[C@H]([C@H](C)C=C5OC(=O)[C@@](C)(O)[C@@]54C)[C@@]3(C)[C@H]1OC(C)=O)[C@@H](O)C(=O)[C@H]1C[C@@H]3O[C@@H]3[C@H](OC(C)=O)[C@]21C
class 0

// inclusive: pIC50 at least 6? input: CC(=O)O[C@H]1[C@H]2[C@H]([C@@H]3[C@@H](O)[C@@H]4[C@H]([C@H](C)C=C5OC(=O)[C@@](C)(O)[C@@]54C)[C@@]3(C)[C@H]1OC(C)=O)[C@@H](OC(=O)c1ccc3c(c1)C(=O)c1ccccc1C3=O)C(=O)[C@H]1C[C@@H]3O[C@@H]3[C@H](OC(C)=O)[C@]21C
class 0

Textbook exercise: given the entry CC(=O)O[C@H]1[C@H]2[C@H]([C@@H]3[C@@H](OC(=O)CC(C)C)[C@@H]4[C@H]([C@H](C)[C@H]5O[C@]56OC(=O)[C@@](C)(O)[C@]46C)[C@@]3(C)[C@H]1OC(C)=O)[C@@H](O)C(=O)[C@H]1C[C@@H]3O[C@@H]3[C@H](OC(C)=O)[C@]21C , state whether its pIC50 is greater than or equal to 6.
class 1

Check this compound for pIC50 at or above 6: CC(=O)O[C@H]1[C@H]2[C@H]([C@@H]3[C@@H](O)[C@@H]4[C@H]([C@H](C)C=C5OC(=O)[C@@](C)(OC(=O)CC(C)C)[C@@]54C)[C@@]3(C)[C@H]1OC(C)=O)[C@@H](OC(=O)CC(C)C)C(=O)[C@H]1C[C@@H]3O[C@@H]3[C@H](OC(C)=O)[C@]21C
class 0

Consider now this further compound.
Tell me whether pIC50 is at least 6 here: CC(=O)O[C@H]1[C@H]2[C@H]([C@@H]3[C@@H](O)[C@@H]4[C@H]([C@H](C)C=C5OC(=O)[C@@](C)(O)[C@@]54C)[C@@]3(C)[C@H]1OC(C)=O)[C@@H](OC(=O)C(C)C)C(=O)[C@H]1C[C@@H]3O[C@@H]3[C@H](OC(C)=O)[C@]21C
class 0
